- ASSAY COMMENT: CCTE_Simmons_MITO_max_resp_rate: CCTE's HepG2 Seahorse XF Respirometric Screening Assay at Maximal Respiratory State [uncoupled], Simmons Lab (AID 2284002)
- ASSAY CONDITIONS: actives raise or lower the signal
The source made the active and inactive calls. How the source made its calls: active means hit-call score of the fitted dose curve at least 0.9, where 1 is the maximum; inactive means score below 0.9.
MEASURED METRIC: AC50

[[record]]
smiles_repr = "CCN(CC)c1nc(C)cc(OP(=S)(OC)OC)n1"
test_value = "inactive"

[[record]]
smiles_repr = "CO/N=C(/C1=NOCCO1)c1ccccc1Oc1ncnc(Oc2ccccc2Cl)c1F"
test_value = "4.35 µM (active)"

[[record]]
smiles_repr = "CCSC(=O)N1CCCCCC1"
test_value = "inactive"


Reference for the values: PubChem BioAssay (EPA / NIEHS)
